# System: Klebsiella pneumoniae X68
# Experiment summary: MIC, standard agar-dilution assay
# Type: cell-based
Listing of recorded MIC by entry.
Reported property: MIC

[
  {
    "Compound": "CN[C@H](CC(C)C)C(=O)N[C@H]1C(=O)N[C@@H](CC(N)=O)C(=O)N[C@H]2C(=O)N[C@H]3C(=O)N[C@H](C(=O)N[C@H](C(=O)O)c4cc(O)cc(O)c4-c4cc3ccc4O)[C@H](O[C@H]3C[C@](C)(N)[C@@H](O)[C@H](C)O3)c3ccc(cc3)Oc3cc2cc(c3O[C@@H]2O[C@H](CO)[C@@H](O)[C@H](O)[C@H]2O[C@H]2C[C@](C)(NCc3ccccc3)[C@@H](O)[C@H](C)O2)Oc2ccc(cc2Cl)[C@H]1O [Compound 10]",
    "Result": "> 128 µg/mL"
  },
  {
    "Compound": "CCN(CC)c1ccc(CNC2(C)CC(OC3C(Oc4c5cc6cc4Oc4ccc(cc4Cl)C(OC4CC(C)(N)C(O)C(C)O4)C4NC(=O)C(NC(=O)C6NC(=O)C(CC(N)=O)NC(=O)C(NC(=O)C(CC(C)C)NC)C(O)c6ccc(c(Cl)c6)O5)c5ccc(O)c(c5)-c5c(O)cc(O)cc5C(C(=O)O)NC4=O)OC(CO)C(O)C3O)OC(C)C2O)cc1 (stereo not drawn) [Compound 56]",
    "Result": "> 128 µg/mL"
  },
  {
    "Compound": "CCCCCN[C@@]1(C)C[C@H](O[C@H]2[C@H](Oc3c4cc5cc3Oc3ccc(cc3Cl)[C@@H](O[C@H]3C[C@](C)(N)[C@@H](O)[C@H](C)O3)[C@@H]3NC(=O)[C@H](NC(=O)[C@@H]5NC(=O)[C@H](CC(N)=O)NC(=O)[C@H](NC(=O)[C@@H](CC(C)C)NC)[C@H](O)c5ccc(c(Cl)c5)O4)c4ccc(O)c(c4)-c4c(O)cc(O)cc4[C@@H](C(=O)O)NC3=O)O[C@H](CO)[C@@H](O)[C@@H]2O)O[C@@H](C)[C@@H]1O [Compound 34]",
    "Result": "> 128 µg/mL"
  }
]

====

# Tested on: Enterococcus faecium X66
# Experiment summary: MIC, standard agar-dilution assay
# Assay type: cell-based
Reported property: MIC (µg/mL)

[
  {
    "Compound": "CCCCCCCCc1ccc(CNC2(C)CC(OC3C(Oc4c5cc6cc4Oc4ccc(cc4Cl)C(OC4CC(C)(N)C(O)C(C)O4)C4NC(=O)C(NC(=O)C6NC(=O)C(CC(N)=O)NC(=O)C(NC(=O)C(CC(C)C)NC)C(O)c6ccc(c(Cl)c6)O5)c5ccc(O)c(c5)-c5c(O)cc(O)cc5C(C(=O)O)NC4=O)OC(CO)C(O)C3O)OC(C)C2O)cc1 (stereo not shown) [Compound 54]",
    "Experimental system": "Enterococcus faecium X66",
    "Reported property": "MIC",
    "Measured number": 64
  },
  {
    "Compound": "CCCCCN(C)[C@H](CC(C)C)C(=O)N[C@H]1C(=O)N[C@@H](CC(N)=O)C(=O)N[C@H]2C(=O)N[C@H]3C(=O)N[C@H](C(=O)N[C@H](C(=O)O)c4cc(O)cc(O)c4-c4cc3ccc4O)[C@H](O[C@H]3C[C@](C)(N)[C@@H](O)[C@H](C)O3)c3ccc(cc3)Oc3cc2cc(c3O[C@@H]2O[C@H](CO)[C@@H](O)[C@H](O)[C@H]2O[C@H]2C[C@](C)(N)[C@@H](O)[C@H](C)O2)Oc2ccc(cc2Cl)[C@H]1O [Compound 6]",
    "Experimental system": "Enterococcus faecium X66",
    "Reported property": "MIC",
    "Measured number": 1
  },
  {
    "Compound": "CCCCCCC(=O)NC1(C)CC(OC2c3ccc(c(Cl)c3)Oc3cc4cc(c3OC3OC(CO)C(O)C(O)C3OC3CC(C)(N)C(O)C(C)O3)Oc3ccc(cc3Cl)C(O)C(NC(=O)C(CC(C)C)NC)C(=O)NC(CC(N)=O)C(=O)NC4C(=O)NC3C(=O)NC2C(=O)NC(C(=O)O)c2cc(O)cc(O)c2-c2cc3ccc2O)OC(C)C1O (stereo not shown) [Compound 69]",
    "Experimental system": "Enterococcus faecium X66",
    "Reported property": "MIC",
    "Measured number": 2
  }
]
